Assay protocol: Pharmacokinetics and absolute bioavailability of pure marker compounds after single oral and i.v. dose
Format: in vivo, male Wistar rats
Condition summary: male, Wistar, rat, in vivo, iv, 1.5 mg/kg, Cmax
Experimental: Plasma concentrations of active marker compounds were determined using validated high-performance thin layer chromatography (HPTLC) with the UV detection method. […] Absolute bioavailabilities of marker compounds viz. diosgenin, charantin, and hydroxychalcone were determined in male Wistar rats. […] The area under the plasma concentration vs. time curve upto the last quantifiable point, AUC(0-t), was calculated by the linear and log-linear trapezoidal rule summation: AUC(0−t) =∑C0+Ct/2× Tt− T0. […]
Measured property: Cmax (ng/mL)
Response body: numeric value in ng/mL, unit text excluded.

Form: compound = C[C@@H]1CC[C@@]2(OC1)O[C@H]1C[C@H]3[C@@H]4CC=C5C[C@@H](O)CC[C@]5(C)[C@H]4CC[C@]3(C)[C@H]1[C@@H]2C [Diosgenin] ; Cmax = 570

---

Assay protocol: Pharmacokinetics and absolute bioavailability of pure marker compounds after single oral and i.v. dose
Format: in vivo, male Wistar rats
Condition summary: male, Wistar, rat, in vivo, iv, 1.5 mg/kg, Vd (apparent volume of distribution)
Procedure: Plasma concentrations of active marker compounds were determined using validated high-performance thin layer chromatography (HPTLC) with the UV detection method. […] Absolute bioavailabilities of marker compounds viz. diosgenin, charantin, and hydroxychalcone were determined in male Wistar rats. […] The area under the plasma concentration vs. time curve upto the last quantifiable point, AUC(0-t), was calculated by the linear and log-linear trapezoidal rule summation: AUC(0−t) =∑C0+Ct/2× Tt− T0. […]
Measured property: Vd (L/kg)
Response body: numeric value in L/kg, unit text excluded.

Form: compound = C[C@@H]1CC[C@@]2(OC1)O[C@H]1C[C@H]3[C@@H]4CC=C5C[C@@H](O)CC[C@]5(C)[C@H]4CC[C@]3(C)[C@H]1[C@@H]2C ; Vd = 2.5

---

Assay protocol: Pharmacokinetics and absolute bioavailability of pure marker compounds after single oral and i.v. dose
Type: in vivo, male Wistar rats
Condition summary: male, Wistar, rat, plasma, iv, 1.5 mg/kg, pure marker, IV single dose 1.5 mg/kg, rat plasma; read-out: Kel (elimination rate constant) (converted)
Measured property: k el (s⁻¹)
Response body: numeric value in s⁻¹, unit text excluded.

Form: compound = C[C@@H]1CC[C@@]2(OC1)O[C@H]1C[C@H]3[C@@H]4CC=C5C[C@@H](O)CC[C@]5(C)[C@H]4CC[C@]3(C)[C@H]1[C@@H]2C ; k el = 2.5e-05

---

Assay protocol: Pharmacokinetics and absolute bioavailability of pure marker compounds after single oral and i.v. dose
Format: in vivo, male Wistar rats
Condition summary: male, Wistar, rat, in vivo
Measured property: bioavailability
Provide the measurement as a number trailed by its unit.

Form: compound = C[C@@H]1CC[C@@]2(OC1)O[C@H]1C[C@H]3[C@@H]4CC=C5C[C@@H](O)CC[C@]5(C)[C@H]4CC[C@]3(C)[C@H]1[C@@H]2C ; bioavailability = 9%

---

Assay protocol: Pharmacokinetics and absolute bioavailability of pure marker compounds after single oral and i.v. dose
Type: in vivo, male Wistar rats
Condition summary: male, Wistar, rat, in vivo, iv, 1.5 mg/kg, AUC 0-∞
Measured property: AUC(0-inf) (ng·h/mL)
Response body: numeric value in ng·h/mL, unit text excluded.

Form: compound = C[C@@H]1CC[C@@]2(OC1)O[C@H]1C[C@H]3[C@@H]4CC=C5C[C@@H](O)CC[C@]5(C)[C@H]4CC[C@]3(C)[C@H]1[C@@H]2C [Diosgenin] ; AUC(0-inf) = 4470

FYI, the data here is from paper PMC8117003.
